- Tested on: LG0567-F671-PDC complex spheroids viability
- procedure_text: Anticancer human tumor LG0567-F671-PDC patient-derived lung adenocarcinoma cell line growth inhibition [RAS]; active = viability on the fitted dose curve at most 10% of control; inactive = the rest
- details: second compound 0.03 µM; first compound 0.1 µM
Valid outcomes are listed here; reply with one: 1 (yes) (active), 0 (no) (inactive)

See these solved cases before continuing.
Req: // return assay outcome for Nc1ccn(C2OC(CO)C(O)C2(F)F)c(=O)n1 (configuration not stated) + CCn1c(-c2cccnc2C(C)OC)c2c3cc(ccc31)N1CCOC(CC(NC(=O)C(C(C)C)N(C)C(=O)C3(F)CCN(C(=O)C#CC(C)(C)N(C)C)CC3)C(=O)N3CCCC(N3)C(=O)OCC(C)(C)C2)C1
Resp: 0 (no)

Req: O=C(c1ccc(F)c(F)c1Nc1ccc(I)cc1F)N1CC(O)([C@@H]2CCCCN2)C1 + CCn1c(-c2cccnc2C(C)OC)c2c3cc(ccc31)N1CCOC(CC(NC(=O)C(C(C)C)N(C)C(=O)C3(F)CCN(C(=O)C#CC(C)(C)N(C)C)CC3)C(=O)N3CCCC(N3)C(=O)OCC(C)(C)C2)C1 , same question.
Resp: 1 (yes)

Req: NC1c2ccccc2OC12CCN(c1cnc3c(N4CCCc5ncccc54)n[nH]c3n1)CC2 (configuration not stated) + CCn1c(-c2cccnc2C(C)OC)c2c3cc(ccc31)N1CCOC(CC(NC(=O)C(C(C)C)N(C)C(=O)C3(F)CCN(C(=O)C#CC(C)(C)N(C)C)CC3)C(=O)N3CCCC(N3)C(=O)OCC(C)(C)C2)C1 , same question.
Resp: 1 (yes)

Req: CC(=O)OC12COC1CC(O)C1(C)C(=O)C(O)C3=C(C)C(OC(=O)C(O)C(NC(=O)OC(C)(C)C)c4ccccc4)CC(O)(C(OC(=O)c4ccccc4)C21)C3(C)C (configuration not stated) + CCn1c(-c2cccnc2C(C)OC)c2c3cc(ccc31)N1CCOC(CC(NC(=O)C(C(C)C)N(C)C(=O)C3(F)CCN(C(=O)C#CC(C)(C)N(C)C)CC3)C(=O)N3CCCC(N3)C(=O)OCC(C)(C)C2)C1 , same question.
Resp: 1 (yes)

Req: Cc1nc(N2CCC3(CC2)COC(C)C3N)c(CO)nc1Sc1ccnc(N)c1Cl (configuration not stated) + CCn1c(-c2cccnc2C(C)OC)c2c3cc(ccc31)N1CCOC(CC(NC(=O)C(C(C)C)N(C)C(=O)C3(F)CCN(C(=O)C#CC(C)(C)N(C)C)CC3)C(=O)N3CCCC(N3)C(=O)OCC(C)(C)C2)C1 , same question.
Resp: 1 (yes)

Further cases:
Req: // return assay outcome for NC1c2ccccc2OC12CCN(c1cnc3c(N4CCCc5ncccc54)n[nH]c3n1)CC2 (configuration not stated) + CCn1c(-c2cc(N3CCN(C)CC3)cnc2C(C)OC)c2c3cc(ccc31)-c1csc(n1)CC(NC(=O)C1CC1C)C(=O)N1CCCC(N1)C(=O)OCC(C)(C)C2
Resp: 1 (yes)

Req: C[C@@H](NC(=O)c1ncnc(N)c1Cl)c1ncc(C(=O)Nc2cc(C(F)(F)F)c(Cl)cn2)s1 + CCn1c(-c2cccnc2C(C)OC)c2c3cc(ccc31)N1CCOC(CC(NC(=O)C(C(C)C)N(C)C(=O)C3(F)CCN(C(=O)C#CC(C)(C)N(C)C)CC3)C(=O)N3CCCC(N3)C(=O)OCC(C)(C)C2)C1 , same question.
Resp: 0 (no)

====

- Tested on: LG0567-F671-PDC complex spheroids viability
- procedure_text: Anticancer human tumor LG0567-F671-PDC cell line growth inhibition [RAS];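 also: spheroids exposed to compound for seven days before readout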;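 as to IC50: luminescence signal used as a proxy for viable cells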
- details: curve of first compound; second compound 0.0949 µM
quantity: IC50

Req: What value of IC50 has been reported for the following compound? C=CC(=O)N1CCN(c2nc(OCC3CCCN3C)nc3c(F)c(-c4nc(N)cc(C)c4C(F)(F)F)c(Cl)cc23)C(C)C1 (stereo not given) + CCn1c(-c2cc(N3CCN(C)CC3)cnc2C(C)OC)c2c3cc(ccc31)-c1csc(n1)CC(NC(=O)C1CC1C)C(=O)N1CCCC(N1)C(=O)OCC(C)(C)C2
Resp: < 3.16 nM

Further cases:
Req: What value of IC50 has been reported for the following compound? CC1(C)CCC(Nc2ncc(C(F)(F)F)c(-c3c[nH]c4c(P(C)(C)=O)c(C#N)ccc34)n2)CN1 (stereo not given) + CCn1c(-c2cccnc2C(C)OC)c2c3cc(ccc31)N1CCOC(CC(NC(=O)C(C(C)C)N(C)C(=O)C3(F)CCN(C(=O)C#CC(C)(C)N(C)C)CC3)C(=O)N3CCCC(N3)C(=O)OCC(C)(C)C2)C1
Resp: < 0.949 nM

Req: CCN1CCN(Cc2ccc(Nc3ncc(F)c(-c4cc(F)c5nc(C)n(C(C)C)c5c4)n3)nc2)CC1 + CCn1c(-c2cc(N3CCN(C)CC3)cnc2C(C)OC)c2c3cc(ccc31)-c1csc(n1)CC(NC(=O)C1CC1C)C(=O)N1CCCC(N1)C(=O)OCC(C)(C)C2 , same question.
Resp: < 3.16 nM

Req: Cc1nc(N2CCC3(CC2)COC(C)C3N)c(CO)nc1Sc1ccnc(N)c1Cl (stereo not given) + CCn1c(-c2cc(N3CCN(C)CC3)cnc2C(C)OC)c2c3cc(ccc31)-c1csc(n1)CC(NC(=O)C1CC1C)C(=O)N1CCCC(N1)C(=O)OCC(C)(C)C2 , same question.
Resp: < 31.6 nM

Req: CC(C)n1nc(-c2ccc3oc(N)nc3c2)c2c(N)ncnc21 + CCn1c(-c2cccnc2C(C)OC)c2c3cc(ccc31)N1CCOC(CC(NC(=O)C(C(C)C)N(C)C(=O)C3(F)CCN(C(=O)C#CC(C)(C)N(C)C)CC3)C(=O)N3CCCC(N3)C(=O)OCC(C)(C)C2)C1 , same question.
Resp: < 0.316 nM

Req: NC1c2ccccc2OC12CCN(c1cnc3c(N4CCCc5ncccc54)n[nH]c3n1)CC2 (stereo not given) + CCn1c(-c2cccnc2C(C)OC)c2c3cc(ccc31)N1CCOC(CC(NC(=O)C(C(C)C)N(C)C(=O)C3(F)CCN(C(=O)C#CC(C)(C)N(C)C)CC3)C(=O)N3CCCC(N3)C(=O)OCC(C)(C)C2)C1 , same question.
Resp: < 31.6 nM

Req: CC(Nc1ccc2c(c1)OCCn1cc(N3C(=O)OCC3C(F)F)nc1-2)C(N)=O (stereo not given) + CCn1c(-c2cc(N3CCN(C)CC3)cnc2C(C)OC)c2c3cc(ccc31)-c1csc(n1)CC(NC(=O)C1CC1C)C(=O)N1CCCC(N1)C(=O)OCC(C)(C)C2 , same question.
Resp: < 31.6 nM

Req: CC1(O)CCCC1n1c(=O)c(C(F)F)cc2cnc(NC3CCN(S(C)(=O)=O)CC3)nc21 (stereo not given) + CCn1c(-c2cc(N3CCN(C)CC3)cnc2C(C)OC)c2c3cc(ccc31)-c1csc(n1)CC(NC(=O)C1CC1C)C(=O)N1CCCC(N1)C(=O)OCC(C)(C)C2 , same question.
Resp: < 31.6 nM

Req: Nc1ccn(C2OC(CO)C(O)C2(F)F)c(=O)n1 (stereo not given) + CCn1c(-c2cccnc2C(C)OC)c2c3cc(ccc31)N1CCOC(CC(NC(=O)C(C(C)C)N(C)C(=O)C3(F)CCN(C(=O)C#CC(C)(C)N(C)C)CC3)C(=O)N3CCCC(N3)C(=O)OCC(C)(C)C2)C1 , same question.
Resp: < 3.16 nM

Req: CCc1c2c(nc3ccc(O)cc13)-c1cc3c(c(=O)n1C2)COC(=O)[C@]3(O)CC + CCn1c(-c2cccnc2C(C)OC)c2c3cc(ccc31)N1CCOC(CC(NC(=O)C(C(C)C)N(C)C(=O)C3(F)CCN(C(=O)C#CC(C)(C)N(C)C)CC3)C(=O)N3CCCC(N3)C(=O)OCC(C)(C)C2)C1 , same question.
Resp: < 0.949 nM

Req: CCC(CC)c1cc(NC2CCC(N)C2)n2nccc2n1 (stereo not given) + CCn1c(-c2cc(N3CCN(C)CC3)cnc2C(C)OC)c2c3cc(ccc31)-c1csc(n1)CC(NC(=O)C1CC1C)C(=O)N1CCCC(N1)C(=O)OCC(C)(C)C2 , same question.
Resp: < 31.6 nM

====

Each record here notes measured viability, T/C.
- Test system: LG0567-F671-PDC complex spheroids viability
- procedure_text: Anticancer human tumor LG0567-F671-PDC cell line growth inhibition [RAS];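 also: spheroids exposed to compound for seven days before readout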
- details: second compound 0.003 µM; first compound 3.16 µM; stronger effect = lower value
State just the number; it will be interpreted in %.

Req: Form field: viability, T/C recorded for CCC(CC)c1cc(NC2CCC(N)C2)n2nccc2n1 (stereo not drawn) + CCn1c(-c2cccnc2C(C)OC)c2c3cc(ccc31)N1CCOC(CC(NC(=O)C(C(C)C)N(C)C(=O)C3(F)CCN(C(=O)C#CC(C)(C)N(C)C)CC3)C(=O)N3CCCC(N3)C(=O)OCC(C)(C)C2)C1 with LG0567-F671-PDC complex spheroids viability (enter value)
Resp: 4.44

Req: NC1c2ccccc2OC12CCN(c1cnc3c(N4CCCc5ncccc54)n[nH]c3n1)CC2 (stereo not drawn) + CCn1c(-c2cc(N3CCN(C)CC3)cnc2C(C)OC)c2c3cc(ccc31)-c1csc(n1)CC(NC(=O)C1CC1C)C(=O)N1CCCC(N1)C(=O)OCC(C)(C)C2 , same question.
Resp: 1.33

Req: C[C@@H](NC(=O)c1ncnc(N)c1Cl)c1ncc(C(=O)Nc2cc(C(F)(F)F)c(Cl)cn2)s1 + CCn1c(-c2cccnc2C(C)OC)c2c3cc(ccc31)N1CCOC(CC(NC(=O)C(C(C)C)N(C)C(=O)C3(F)CCN(C(=O)C#CC(C)(C)N(C)C)CC3)C(=O)N3CCCC(N3)C(=O)OCC(C)(C)C2)C1 , same question.
Resp: 25.6

Req: CC(Nc1ccc2c(c1)OCCn1cc(N3C(=O)OCC3C(F)F)nc1-2)C(N)=O (stereo not drawn) + CCn1c(-c2cc(N3CCN(C)CC3)cnc2C(C)OC)c2c3cc(ccc31)-c1csc(n1)CC(NC(=O)C1CC1C)C(=O)N1CCCC(N1)C(=O)OCC(C)(C)C2 , same question.
Resp: 3.53

Further cases:
Req: Form field: viability, T/C recorded for CC(Nc1ccc2c(c1)OCCn1cc(N3C(=O)OCC3C(F)F)nc1-2)C(N)=O (stereo not drawn) + CCn1c(-c2cccnc2C(C)OC)c2c3cc(ccc31)N1CCOC(CC(NC(=O)C(C(C)C)N(C)C(=O)C3(F)CCN(C(=O)C#CC(C)(C)N(C)C)CC3)C(=O)N3CCCC(N3)C(=O)OCC(C)(C)C2)C1 with LG0567-F671-PDC complex spheroids viability (enter value)
Resp: 6.22

Req: CC(=O)OC12COC1CC(O)C1(C)C(=O)C(O)C3=C(C)C(OC(=O)C(O)C(NC(=O)OC(C)(C)C)c4ccccc4)CC(O)(C(OC(=O)c4ccccc4)C21)C3(C)C (stereo not drawn) + CCn1c(-c2cccnc2C(C)OC)c2c3cc(ccc31)N1CCOC(CC(NC(=O)C(C(C)C)N(C)C(=O)C3(F)CCN(C(=O)C#CC(C)(C)N(C)C)CC3)C(=O)N3CCCC(N3)C(=O)OCC(C)(C)C2)C1 , same question.
Resp: 11.5

Req: CC1(O)CCCC1n1c(=O)c(C(F)F)cc2cnc(NC3CCN(S(C)(=O)=O)CC3)nc21 (stereo not drawn) + CCn1c(-c2cc(N3CCN(C)CC3)cnc2C(C)OC)c2c3cc(ccc31)-c1csc(n1)CC(NC(=O)C1CC1C)C(=O)N1CCCC(N1)C(=O)OCC(C)(C)C2 , same question.
Resp: 18.6

Req: Cc1nc(N2CCC3(CC2)COC(C)C3N)c(CO)nc1Sc1ccnc(N)c1Cl (stereo not drawn) + CCn1c(-c2cc(N3CCN(C)CC3)cnc2C(C)OC)c2c3cc(ccc31)-c1csc(n1)CC(NC(=O)C1CC1C)C(=O)N1CCCC(N1)C(=O)OCC(C)(C)C2 , same question.
Resp: 1.52
